B1: TPR t1 (parent)
chain: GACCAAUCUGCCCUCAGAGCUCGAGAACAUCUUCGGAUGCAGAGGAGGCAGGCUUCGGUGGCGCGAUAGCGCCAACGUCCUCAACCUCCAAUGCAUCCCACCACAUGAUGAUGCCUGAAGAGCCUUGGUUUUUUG

- Variants of: B1
- assay.info: polymerase ribozyme fitness, log enrichment relative to wild type (log ratio); higher = more active; in vitro selection for triplet polymerase activity
Examples of variants with documented polymerase ribozyme fitness (log ratio) follow.
test.readout: polymerase ribozyme fitness (log ratio)

1. GACCAAUCUGCCCUCAGAGCUCGAGAACAGCUUCGGAUGCAGAGGAGGCAGGCUUCGGUGGCGUGAUAGCGCCAACGUCCUCAACCUCCAAUGCAUCCCACCACAUGAUGAUGCCUGAAGGGCCUUGGUUUUUUG [U30G C64U A121G] : -4
2. GACCAAUCUGCCCUCAGCGUUCGAGAACAUCUUCGGAUGCAGAGGAGGCAGGCUUCGGUGGCGCGAUAGCGCCAACGUCCUCAACCUCCAAUGCAUCCCACCACAUGAUGAUGACUGAAGAGCCUUGGUUUUUUG [A18C C20U C114A] : 0.845
3. GAUCAAUCUGCCCUCACAGCUCGAGAACAUCUUCGGAUGCAGAGGAGGCAGGCUUCGGUGCCGCGAUAGCGCCAACGUCCUCAACCUCCAAUGCAUCCCACCACAUGAUGAUGCCUUAAGAGCCUUGGUUUUUUG [C3U G17C G61C G117U] : -5.52
4. GACCAAUCUGCCCUCAGAGCUCGAGAACAUCUUCGGAUGCAGAGGAGGCAGGCUUCGGUGGCGCGAUAGCGCCAAUGUCCUCAACCUCCAAGGCAUCCCACCACAUGAUGAUGCCUGAAGAGCCUUGGUUUUUUG [C76U U92G] : -3.28
5. GACCAAUCUGCCCUCAGAGCUCGAGAACAUCUUCGGAUGCAGAAGAGGCAGGCUUCGGUGGCGCGAUAGCGCCAACGUCCUCAACCUCCGAUGCAUCCCACCAUAUGAUGAUGCCUGAAGAGCCUUGGUUUUUUG [G44A A90G C104U] : -0.158
6. GACCAAUCUGCACUCAGAGCUCGAGAACAUCUUCGGAUGCAGAGGAGGCAGGCUUCGGUGGCGCGAUAGCGCCAACGUCCUCAACCUCCAAUGCAUCCCACCACAUGAUAAUGCCUGAAGAGUCUUGGUUUUUUG [C12A G110A C123U] : -1.84
7. GACCAAUCUGCUCUCAGAGCUCGAGAACAUCUUCGGAUGCAGAGGAGGCAGGCUUCGGUGGCGCGAUAGCGCCAACGUCCUCAACCUCCAAUGCAUCCCACCACAUGAUGAUGCCUAAAGAGCCUUGGUUUUUUG [C12U G117A] : 0.626
8. GACCAAUGUGCCCUCAGAGCUCGAGAACAUCUUCGGAUGCAGACGAGGAAGGCUUCGGUGGCGCGAUAGCGCCAACGUCCUCAACCUCCAAUGCAUCCCACCACAUGAUGAUGCCUGAAGAGGCUUGGUUUUUUG [C8G G44C C49A C123G] : 0.185
9. GACCAAUCUGCCCUCAGAGCUCGAGAACAUCUUCGGAUGCAGAGGAGGCAGGUUUCGGUGGCGCGAUAGCGCCAACGUCCUCAACCUCCAAUGCAUCCCACCACAUGAUGAUGCCUGAAGAGCCUUGGAUUUUUG [C53U U129A] : -1.24
10. GACCAAUCUGCCCUCUGCGCUCGAGAACAUCUUCGGAUGCAGAGGAGGCAGGCUUCGGUGGCGCGAUAGCGCCAACGUCCUCAACAUCCAAUGCAUCCCACCACAUGAUGAUGCCUGAAGAGCCUUGGUUUUUUG [A16U A18C C86A] : -4.71
11. GACCAAUCUGCCCUCAGAGCUCGAGAACAUCUUCGGAUGCAGAGGAGACAGGCUUCGGUGGCGCGAUAGCGCCAACGUCCUCAACCUCCAAUGCAUCCCACCACAUGAUGAUGCCUGAAGAGCCUUGUUUUUUUG [G48A G128U] : -2.69
12. GACCAAUCUGCCCUCAGAGCUCGAGAACAUCUUCGGAUGGAGAGGUGGCAGGUUUCGGUGGAGCGAUAGCGCCAACGUCCUCAACCUCCAAUGCAUCCCACCACAUGAUGAUGCCUGAAGAGCCUUGGUUUUUUG [C40G A46U C53U C62A] : -3.89
13. GACCAAUCUGCCCUCAGAGCUCGAGAACAUCUUCGGAUGCAGAGGAGUCAGGCUUCGGUGGCGCGAUAGCGCCAACGUCCUCAACCUCCAAUGCAUCCCACCACAUGAUGAAGCCUGAAGAGCCUUGGUUUUUUG [G48U U112A] : 0.632
14. GACCAAUCUGCCCUCAGAGCUCGAGAACAUCUUCGGAUGCAGAGGAGGAAGGCUUCGGUGGCGCGAUAGCGUCAACGUCCUCAACCUCCAAUGCAUGCCACCACAUGAUGAUGCCUGAAGAGCCUUGCUUUUUUG [C49A C72U C97G G128C] : -6.74
15. GACCAAUUUGCCUUCAGAGCUCGAGAAGAUCUUCGGAUGCAGAGGAGGCAGGCUUCGGUGGCGCGAUAGCGCCAACGUCCUGAACCUCCAAUGCAUCCCACCACAUGAUGAUGGCUGAAGAGCCUUGGUUUUUUG [C8U C13U C28G C82G C114G] : -4.82
16. GACCAAUCUGCCCUUAGAGCUCGAGAACAUCUUCGCAUGCAGAGGAGGCAGGCCUCGGUGGCGCGAUAGCGCCAACGUCCUCAAACUCCAAUGCAUCCCACCACAUGAUGAUGCCUUAAGAGCCUUCGUUUUUUG [C15U G36C U54C C85A G117U G127C] : -5.33
17. GACCAAUCUGCCCUCAGAGCUAGAGAACAUCUUCGGAUGCAGAGGAGGCAGGCUUCGGUGGCGCGAUAGCGCCUACGUCCUCAACCUCCAAUGCAUCCCACCACAUGAUGAUGCCUGAAGAGACGUGGUUUUUUG [C22A A74U C123A U125G] : -5.38
18. GACCAAUCUGCCCUCAGAGCUCGAGAACAUCUUCGGAUGCAGAGGAGGCAGUCUUCGGUGGUGCGAUAGCGCCAACGUCCUAAACCUCCAAUGCAUCCCACUACAUGAUGAUGCCUGAAGAGGCUUGGUUUUUUG [G52U C62U C82A C102U C123G] : -2.65
19. GACCAAUCUGCCCUCAGAGCUCGAGAGCAUCUUCGGAUGCAGAGGAGGCAGGCUUCGGUGACGCGAUAGCGCCAACGUCCCCACCCUCCAAUGCAUCCCACCAUAUGAUUAUGCCUGAAGAGCCUUGGUUCUUUG [A27G G61A U81C A84C C104U G110U U131C] : -2.62
20. GACCAAUCAGCCCUCUGAGCUCGAGAACAUCUUCGGAUGCAGAGGAGGCAGGCUUCGGUGGCCCGAUAGCGCCAACGUCCUCAACCUCCAAUGCAUCCCACCACAUGAUGAUGCCUGAAGAGCCUUGGUUUAUUG [U9A A16U G63C U132A] : -0.608
21. GACCAAUCUGCCCUCAGAGCUCGAGAACAUCUUCGGAUGCAGAGGAGGCAGGCUUCGGUGGCGCGAUAGCGCCAACGUCCUCAACCUCCAAUGGAUCCCACCACAUGAUGAUGCCUAAAGAGCCUUGGUUUUUUG [C94G G117A] : -2.51
22. GACCAAUCUGCCCUCAGAGCUCGAGAACAUCUUCGGAUGCAGAGGAGGCAGGCUUCGGUCGCGCGAUAGCGCUAACGUCCUCAACCUCCAAUGCAUCCCACCACAUGAUGAUGCCUGAAGAGCCUUGGUGUUUUG [G60C C73U U130G] : -0.603
